Entries and their inhibition values follow.
# targetEntity: Serine/threonine-protein kinase Chk1 (Homo sapiens) (UniProt O14757)
# Sequence (O14757 whole entry): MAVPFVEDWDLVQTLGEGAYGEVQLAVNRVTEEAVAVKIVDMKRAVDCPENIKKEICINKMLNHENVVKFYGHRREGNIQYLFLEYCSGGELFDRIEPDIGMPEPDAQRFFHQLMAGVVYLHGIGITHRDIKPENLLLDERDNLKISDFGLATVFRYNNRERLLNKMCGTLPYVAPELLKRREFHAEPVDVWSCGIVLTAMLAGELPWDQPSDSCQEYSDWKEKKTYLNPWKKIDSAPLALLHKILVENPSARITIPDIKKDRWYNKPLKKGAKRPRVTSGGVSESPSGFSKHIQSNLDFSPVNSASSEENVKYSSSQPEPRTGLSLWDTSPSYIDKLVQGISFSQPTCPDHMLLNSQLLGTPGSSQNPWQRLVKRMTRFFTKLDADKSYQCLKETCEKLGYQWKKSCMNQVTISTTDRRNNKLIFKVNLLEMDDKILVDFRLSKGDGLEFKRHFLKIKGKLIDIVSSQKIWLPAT
# experimentNotes: Inhibition of CHK1 at 30 uM by microfluidic mobility shift assay
Give the value, in units of %, as a plain number.

Cn1nc(N)c2c(=O)[nH]c(-c3ccccn3)cc21 | 34
Cc1cc2[nH]nc(N)c2c(N2CCOCC2)n1 | 13
COc1ccc(-c2cc3c(c(N)nn3C)c(=O)[nH]2)cc1 | 36

Kindly consider the entry below.
Ask: Could you share which inhibition value was measured for CC(=O)Nc1nn(C)c2cc(-c3ccccc3)[nH]c(=O)c12 ?
Result: 4

* * *

# targetEntity: Ribosomal protein S6 kinase alpha-5 (Homo sapiens)
# experimentNotes: Inhibition of MSK1 at 30 uM by microfluidic mobility shift assay
Entries and their inhibition values follow.
Give the value, in units of %, as a plain number.

CC(=O)Nc1nn(C)c2cc(-c3ccccc3)[nH]c(=O)c12 | 3
Cc1cc2nn(-c3ccccc3)c(N)c2c(=O)[nH]1 | 4
Cc1cc2[nH]nc(N)c2c(N2CCCCC2)n1 | 87

Ask: Request body: readout inhibition, system Ribosomal protein S6 kinase alpha-5 (Homo sapiens), query CN1CCN(c2ccc(-c3cc4nn(-c5ccccc5)c(N)c4c(=O)[nH]3)cc2)CC1 . Return the value.
Result: 12

Ask: Follow-up item: Nc1n[nH]c2cc(CC3CCNCC3)[nH]c(=O)c12
Result: 62

Ask: Follow-up item: COC(=O)CCc1c(C)[nH]c(=O)c2c(N)nn(C)c12
Result: 7

Ask: Follow-up item: Cc1cc2nc(N)nc(N)c2c(=O)[nH]1
Result: 6

Ask: Follow-up item: Cc1[nH]c(=O)c2c(N)n(-c3ccccc3)nc2c1-c1ccccc1
Result: 2

Ask: Follow-up item: Cc1cc2c(cn1)c(N)nn2C
Result: -2

Ask: Follow-up item: Nc1c2cnc(-c3ccccc3)cc2nn1-c1ccccc1
Result: -2

Ask: Follow-up item: CC(C)(C)c1cc2[nH]nc(N)c2c(=O)[nH]1
Result: 65

* * *

# targetEntity: Mitogen-activated protein kinase 1 (Homo sapiens)
# experimentNotes: Inhibition of ERK2 at 30 uM by microfluidic mobility shift assay
Assign True to entries whose inhibition meets or exceeds 2%; assign False to the rest.

Past entries and their recorded results:
Cn1nc(N)c2c(=O)[nH]c(-c3ccccn3)cc21 | True
Nc1c2cnc(-c3ccccc3)cc2nn1-c1ccccc1 | False
Nc1c2c(=O)[nH]c(-c3ccccc3)cc2nn1-c1ccccn1 | False

Ask: Answer whether inhibition of COc1cccc(-c2cc3[nH]nc(N)c3c(=O)[nH]2)c1 is greater than or equal to 2%.
Result: True
